- TEST_NAME: Induction of haloperidol-like catalepsy
- Assay type: in vivo, mouse
- STUDY_CONDITIONS: mouse, in vivo; mice; 30 minutes after injection; NE = no effect to dose shown; read-out: Catalepsy (TD50)
Counter-ions that a name gives are not always drawn.
MEASUREMENT_NAME: TD50 at 0.5 h (mg/kg)
Output spec: scalar in mg/kg, unitless text.

// query Any idea what TD50 at 0.5 h was measured for O=c1cc(-c2ccccc2)oc2ccc(OCCCCCCN3CCOCC3)cc12 [Example 29, hydrochloride] ?
// result 38

// query What about CN(C)CCCCCCOc1ccc2oc(-c3ccccc3)cc(=O)c2c1 [Example 4, hydrochloride] ?
// result 38

// query What about O=C(CCCN1CCC(O)(c2ccc(Cl)cc2)CC1)c1ccc(F)cc1 [Haloperidol, reference compound] ?
// result 0.14

----------
- TESTED_TARGET: sigma sites (Cavia porcellus, UniProt Q60492)
- Construct: Frozen whole guinea pig brains; tissue Pel-Freez, Rogers, Ariz
- Sequence (Q60492 whole entry): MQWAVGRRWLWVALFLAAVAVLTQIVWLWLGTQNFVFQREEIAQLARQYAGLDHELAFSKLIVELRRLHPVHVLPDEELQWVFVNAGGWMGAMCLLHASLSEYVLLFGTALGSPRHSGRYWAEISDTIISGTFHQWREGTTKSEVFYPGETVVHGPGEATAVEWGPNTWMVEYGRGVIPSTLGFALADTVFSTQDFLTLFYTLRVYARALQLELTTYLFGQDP
- TEST_NAME: Sigma receptor binding assay, [3H](+)-3-PPP
- STUDY_CONDITIONS: 4 nM [3H](+)-3-PPP; guinea pig whole brain; room temperature, 45 minutes; read-out: Receptor Potency Sigma PPP (IC50, nMol)
Where a name gives a salt, the structure may show the parent alone.
MEASUREMENT_NAME: IC50 (nM)
Output spec: scalar in nM, unitless text.

// query Any idea what IC50 was measured for O=c1cc(C2CCCCC2)oc2ccc(OCCCCCCN3CCC(O)CC3)cc12 [Example 26, hydrochloride] ?
// result 46

// query What about CN(C)CCCCCCOc1ccc2oc(-c3ccccc3)cc(=O)c2c1 [Example 4, hydrochloride] ?
// result 335

// query What about O=c1cc(-c2ccccc2Cl)oc2ccc(OCCCCCCN3CCC(O)CC3)cc12 ?
// result 29

----------
I'd appreciate it if you could supply minimal effective dose values for the items below.
- TEST_NAME: Reversal of Amphetamine-Induced Hyperlocomotion
- Format: in vivo
- STUDY_CONDITIONS: Mus musculus, ip; amphetamine 1.5 mg/kg i.p.; mice; NE = no effect to dose shown; read-out: Induced Locomotion Amphetamine (minimally effective dose, MED)
Where a name gives a salt, the structure may show the parent alone.
Output spec: scalar in mg/kg, unitless text.

// query Any idea what minimal effective dose was measured for O=c1cc(C2CCCCC2)oc2ccc(OCCCCCCN3CCC(O)CC3)cc12 [Example 26, hydrochloride] ?
// result 20

// query What about Cc1c(-c2ccccc2)oc2ccc(OCCCCCCN3CCC(O)CC3)cc2c1=O [Example 39, hydrochloride] ?
// result 25

// query What about O=c1cc(C2CCCCC2)oc2ccc(OCCCCCCN3CCCCC3)cc12 [Example 34, hydrochloride] ?
// result 10

----------
I'd appreciate it if you could supply minimal effective dose values for the items below.
- TEST_NAME: Reversal of Amphetamine-Induced Hyperlocomotion
- Assay type: in vivo
- STUDY_CONDITIONS: Mus musculus, ip, read-out: Induced Locomotion Amphetamine (minimally effective dose, MED)
Structures can show the parent of a compound that is named as a salt.
Output spec: scalar in mg/kg, unitless text.

// query Any idea what minimal effective dose was measured for C[C@@H]1CN(CCCn2c3ccccc3c3ccccc32)C[C@H](C)N1 [Rimcazole, reference compound] ?
// result 20

// query What about O=c1cc(-c2ccccc2)oc2ccc(OCCCCCCN3CCOCC3)cc12 [Example 29, hydrochloride] ?
// result 10

// query What about O=C(CCCN1CCC(O)(c2ccc(Cl)cc2)CC1)c1ccc(F)cc1 [Haloperidol, reference compound] ?
// result 0.075

// query What about O=c1cc(-c2ccccc2Cl)oc2ccc(OCCCCCCN3CCC(O)CC3)cc12 [Example 49] ?
// result 30

// query What about O=c1cc(-c2ccccc2)oc2cc(OCCCCCCN3CCC(O)CC3)ccc12 [Example 37] ?
// result 30

// query What about CN(C)CCCCCCOc1ccc2oc(-c3ccccc3)cc(=O)c2c1 [Example 4, hydrochloride] ?
// result 30

----------
- TESTED_TARGET: D2 (Rattus norvegicus, UniProt P61169)
- Construct: Rat striata were homogenized
- Sequence (P61169 whole entry): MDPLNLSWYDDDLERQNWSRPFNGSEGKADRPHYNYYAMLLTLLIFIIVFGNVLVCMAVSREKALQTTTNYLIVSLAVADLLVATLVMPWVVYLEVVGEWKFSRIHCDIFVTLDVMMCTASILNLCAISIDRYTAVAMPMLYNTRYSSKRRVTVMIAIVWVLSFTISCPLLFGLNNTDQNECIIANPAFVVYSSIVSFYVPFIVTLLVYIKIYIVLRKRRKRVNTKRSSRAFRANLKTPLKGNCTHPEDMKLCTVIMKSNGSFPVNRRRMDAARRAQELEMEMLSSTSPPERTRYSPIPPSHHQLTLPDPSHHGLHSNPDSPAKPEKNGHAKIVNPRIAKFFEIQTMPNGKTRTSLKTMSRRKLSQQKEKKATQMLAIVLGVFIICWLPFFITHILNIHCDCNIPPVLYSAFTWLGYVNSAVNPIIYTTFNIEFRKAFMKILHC
- TEST_NAME: Dopamine receptor binding, [3H]sulpiride
- STUDY_CONDITIONS: 3 nM [3H]sulpiride; rat striata; 60 minutes; read-out: Receptor Potency D2 (Ki, nMol)
Structures can show the parent of a compound that is named as a salt.
MEASUREMENT_NAME: pKi
Units for pKi: none; it is -log10 of a concentration expressed in mol/L.

// query What is its pKi for D2 (Rattus norvegicus, UniProt P61169)? Entry: OC(CCCN1CCN(c2ncc(F)cn2)CC1)c1ccc(F)cc1 (centres unmarked) [BMY14802, reference compound]
// result 5.52

// query What about C[C@@H]1CN(CCCn2c3ccccc3c3ccccc32)C[C@H](C)N1 [Rimcazole, reference compound] ?
// result 4.65

// query What about O=c1cc(C2CCCCC2)oc2ccc(OCCCCCCN3CCC(O)CC3)cc12 [Example 26, hydrochloride] ?
// result 4.60

// query What about O=c1cc(-c2ccccc2Cl)oc2ccc(OCCCCCCN3CCC(O)CC3)cc12 ?
// result 5.39

// query What about O=c1cc(-c2ccccc2)oc2ccc(OCCCCCCN3CCOCC3)cc12 [Example 29, hydrochloride] ?
// result 4.73

// query What about O=c1cc(-c2ccccc2)oc2ccc(OCCCCCCN3CCC(O)CC3)cc12 [Example 6, hydrochloride] ?
// result 5.44

// query What about O=c1cc(-c2ccccc2)oc2ccc(OCCCCCCN3CCCCC3)cc12 [Example 28, hydrochloride] ?
// result 5.35

// query What about CN(C)CCCCCCOc1ccc2oc(-c3ccccc3)cc(=O)c2c1 [Example 4, hydrochloride] ?
// result 5.26

----------
- TEST_NAME: Reversal of Amphetamine-Induced Hyperlocomotion
- Type: in vivo
- STUDY_CONDITIONS: Mus musculus, ip; amphetamine 1.5 mg/kg i.p.; mice; NE = no effect to dose shown; read-out: Induced Locomotion Amphetamine (minimally effective dose, MED)
Counter-ions that a name gives are not always drawn.
I'd appreciate it if you could supply minimal effective dose values for the items below.
Output spec: scalar in mg/kg, unitless text.

// query Any idea what minimal effective dose was measured for OC(CCCN1CCN(c2ncc(F)cn2)CC1)c1ccc(F)cc1 (stereo not shown) [BMY14802, reference compound] ?
// result 15

// query What about CN1CCN(C2=Nc3cc(Cl)ccc3Nc3ccccc32)CC1 [Clozapine, reference compound] ?
// result 1

// query What about O=c1cc(-c2ccccc2)oc2ccc(OCCCCCCN3CCC(O)CC3)cc12 [Example 6, hydrochloride] ?
// result 5

// query What about O=c1cc(-c2ccccc2)oc2ccc(OCCCCCCN3CCCCC3)cc12 [Example 28, hydrochloride] ?
// result 20

----------
I'd appreciate it if you could supply pIC50 values for the items below.
- TESTED_TARGET: sigma sites (Cavia porcellus)
- Construct: Frozen whole guinea pig brains; tissue Pel-Freez, Rogers, Ariz
- TEST_NAME: Sigma receptor binding assay, [3H](+)-3-PPP
- STUDY_CONDITIONS: 4 nM [3H](+)-3-PPP; guinea pig whole brain; room temperature, 45 minutes; read-out: Receptor Potency Sigma PPP (IC50, nMol)
Where a name gives a salt, the structure may show the parent alone.
Units for pIC50: none; it is -log10 of a concentration expressed in mol/L.

// query Any idea what pIC50 was measured for O=c1cc(-c2ccccc2)oc2ccc(OCCCCCCN3CCC(O)CC3)cc12 [Example 6, hydrochloride] ?
// result 6.91

// query What about O=c1cc(-c2ccccc2)oc2cc(OCCCCCCN3CCC(O)CC3)ccc12 [Example 37] ?
// result 7.15

// query What about O=c1cc(C2CCCCC2)oc2ccc(OCCCCCCN3CCCCC3)cc12 [Example 34, hydrochloride] ?
// result 7.49

// query What about O=c1cc(-c2ccccc2)oc2ccc(OCCCCCCN3CCCCC3)cc12 [Example 28, hydrochloride] ?
// result 7.27

----------
- TEST_NAME: Induction of haloperidol-like catalepsy
- Format: in vivo, mouse
- STUDY_CONDITIONS: mouse, in vivo
Structures can show the parent of a compound that is named as a salt.
I'd appreciate it if you could supply TD50 at 0.5 h values for the items below.

// query Any idea what TD50 at 0.5 h was measured for O=c1cc(C2CCCCC2)oc2ccc(OCCCCCCN3CCCCC3)cc12 [Example 34, hydrochloride] ?
// result 30 mg/kg

// query What about O=c1cc(C2CCCCC2)oc2ccc(OCCCCCCN3CCC(O)CC3)cc12 [Example 26, hydrochloride] ?
// result 50 mg/kg

// query What about O=c1cc(-c2ccccc2)oc2ccc(OCCCCCCN3CCC(O)CC3)cc12 [Example 6, hydrochloride] ?
// result 61 mg/kg
